Give measured logD for each item. Keep answers brief.
assay: Distribution coefficient between 1-octanol and aqueous phosphate buffer, logD of the compound in pH 7.4 buffer; assay type: physicochemical; conditions: 1-octanol/aqueous phosphate buffer

Exercise: Quick check: logD of CCS(=O)(=O)c1ccc(CC(=O)Nc2cc(-c3cccnc3OCCCc3ccccc3)cs2)cc1 ?
Solution: ≥ 4

Exercise: Param item = CCS(=O)(=O)c1ccc(CC(=O)Nc2cc(-c3cccnc3OCCc3ccccc3)cs2)cc1 ; retrieve measured logD.
Solution: ≥ 4

Exercise: Endpoint output: logD of CCCOc1ncccc1-c1csc(NC(=O)Cc2ccc(S(=O)(=O)CC)cc2)c1 . Value?
Solution: ≥ 4

Exercise: If you can, please state the reported logD value of CCS(=O)(=O)c1ccc(CC(=O)Nc2nc(-c3cccc(Cl)c3)c(C(=O)c3ccccc3Cl)s2)cc1 .
Solution: > 4.2
